Every entry's value here was drawn from patent US20030138894A1.

- Tgt: T1, FLAG-tagged ACE-2 target (human, UniProt Q9BYF1 18-740)
- T1 construct: range 1-740; obtained from Human Genome Sciences, Inc; also called FLAG-ACE-2; tagged human ACE-2; not shown: FLAG tag
- Protocol Text: phage ELISA on FLAG-ACE-2
No end group written: not given here.
Parameter Measured: binding result

LYECEWKQFGPVEMCLNF (not fully specified (bridges); cysteine pairing not given here) [ACE-2 binding polypeptide LYECEWKQFGPVEMCLNF]; binds
YDNCLGLANLNFCFDF (not fully specified (N-terminus, C-terminus, bridges); cysteine pairing not given here) [ACE-2 binding polypeptide YDNCLGLANLNFCFDF]; binds
